composite z-score reference
- systemUnderTest: Follistatin-related protein 3 (Homo sapiens) (UniProt O95633)
- Sequence (O95633 whole entry, looked up): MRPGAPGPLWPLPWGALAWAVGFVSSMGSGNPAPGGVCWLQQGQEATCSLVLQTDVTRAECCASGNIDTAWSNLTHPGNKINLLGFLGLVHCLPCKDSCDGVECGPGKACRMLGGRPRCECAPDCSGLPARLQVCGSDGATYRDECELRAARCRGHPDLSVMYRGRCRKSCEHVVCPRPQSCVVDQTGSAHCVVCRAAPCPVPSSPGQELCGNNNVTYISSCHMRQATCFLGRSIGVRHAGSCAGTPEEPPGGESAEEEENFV
- testProtocol: FSTL3 binders on small-molecule microarrays, primary screen, biochemical, small-molecule microarray, 635 nm fluorescence (AID 1105);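 note: score merges emission near 667 nm and signal to noise per printed spot across three slides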
- measurementParameters: FSTL3 binding, higher = more signal
Answer with a number only.

Worked examples, 5 compounds total:
# compound, composite z-score
measured = [
    ("C[C@H]1Cc2c(COc3ccccc3)nc3c(c2CO1)CN(CCOc1ccccc1)CC3", 1.29),
    ("O=C(NN=C1C[C@@H](O)[C@@H](O)[C@@H]2[C@@H]3C(=O)N(C[C@@H]4CCCO4)C(=O)[C@@H]3CC[C@H]12)OCc1ccccc1", -0.281),
    ("Cc1ccc(S(=O)(=O)N[C@H]2COC(=O)CC=C[C@H](C)[C@@H](NS(=O)(=O)c3ccc(C)cc3)COC(=O)CC=C[C@@H]2C)cc1", 0.577),
    ("O=C1[C@H]2[C@H]3[C@H](O)[C@H](O)CC(=NOCc4ccccc4)[C@@H]3CC[C@H]2C(=O)N1c1ccc(F)cc1F", 0.286),
    ("CC(CCN1CCCCc2nc(C)c(C)cc21)=NO[C@@H](C)c1cn([C@H](CO)Cc2ccccc2)nn1", 0.902),
]

## Task Bench note: what composite z-score did O=C1[C@H]2[C@H]3[C@H](O)[C@H](O)CC(=NOCc4ccccc4)[C@@H]3CC[C@H]2C(=O)N1Cc1ccc2c(c1)OCO2 show?
## Result 0.517

## Task Bench note: what composite z-score did CCOC(=O)NN=C1C[C@@H](O)[C@@H](O)[C@@H]2[C@@H]3C(=O)N([C@@H](C)c4ccccc4)C(=O)[C@@H]3CC[C@@H]12 show?
## Result 1.34

All figures here come from PubChem BioAssay.
